Entry source: paper PMC8526855

target: Aurora A (Homo sapiens, UniProt O14965); experiment: microfluidic mobility shift kinase assay; also cellular thermal shift assay (Aurora A levels reduced with GNA at […]°C)
Sequence (O14965 whole entry): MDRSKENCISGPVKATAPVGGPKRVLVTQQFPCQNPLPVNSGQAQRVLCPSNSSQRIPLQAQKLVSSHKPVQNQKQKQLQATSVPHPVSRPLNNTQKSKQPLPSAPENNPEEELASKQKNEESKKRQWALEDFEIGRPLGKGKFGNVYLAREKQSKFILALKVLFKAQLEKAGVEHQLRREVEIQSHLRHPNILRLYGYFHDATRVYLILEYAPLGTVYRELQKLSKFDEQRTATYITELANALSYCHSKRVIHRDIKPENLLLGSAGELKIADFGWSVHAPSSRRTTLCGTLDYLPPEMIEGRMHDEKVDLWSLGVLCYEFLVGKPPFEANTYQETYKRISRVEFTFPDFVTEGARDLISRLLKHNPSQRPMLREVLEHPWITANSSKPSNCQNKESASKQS
Result type: IC50 (nM)

[[record]]
compound = "CC(C)=CCC/C(C)=C/Cc1c(O)c(CC=C(C)C)c2c(c1O)C(=O)C1=C[C@@H]3C[C@H]4C(C)(C)O[C@@](C/C=C(/C)C(=O)O)(C3=O)[C@@]14O2 [GNA, gambogenic acid]"
result_units = "nM"
numeric_result = 1420

